- tested_target: Endochitinase B1 [Y245F] (Aspergillus fumigatus, UniProt Q873X9, Y245F)
- assay_summary: Enzyme Inhibition Assay
parameter_measured: Kd (µM)
Your answer should be a plain number; it is taken to be in µM.

(Q) Name the recorded Kd of the compound listed here: CC(=O)NC(=N)NCCC[C@@H]1NC(=O)[C@H](CCCC(=O)O)NC(=O)[C@H](Cc2c[nH]cn2)N2C(=O)[C@H](C[C@H]2O)NC(=O)[C@H]2CCCN2C1=O
(A) 5.57
